ASSAY: phase 1 first-in-human trial, multiple ascending dose (MAD) PK
Assay type: in vivo
TEST CONDITIONS: human, plasma, oral, 300 mg, healthy volunteers, fasted; 300 mg QD (Cohort CM); Day 1; read-out: Tmax (median)

>  <COMPOUND>
Brc1cccc(-c2cc(-c3ccc4c(c3)OCO4)n[nH]2)c1 [anle138b]

>  <UNIT>
h

>  <Tmax>
1.5

$$$$

* * *

ASSAY: phase 1 first-in-human trial, multiple ascending dose (MAD) PK
Format: in vivo
TEST CONDITIONS: human, plasma, oral, 100 mg, healthy volunteers, fasted; 100 mg QD (Cohort AM); Day 1; read-out: Tmax (median)

>  <COMPOUND>
Brc1cccc(-c2cc(-c3ccc4c(c3)OCO4)n[nH]2)c1 [anle138b]

>  <Tmax / h>
1

$$$$

* * *

ASSAY: phase 1 first-in-human trial, multiple ascending dose (MAD) PK
Assay type: in vivo
TEST CONDITIONS: human, plasma, oral, 300 mg, healthy volunteers, fasted; 300 mg QD; Day 7; read-out: T1/2 (geometric mean) (converted)

>  <COMPOUND>
Brc1cccc(-c2cc(-c3ccc4c(c3)OCO4)n[nH]2)c1 [anle138b]

>  <half-life>
~6.07 h

$$$$

* * *

ASSAY: phase 1 study in patients with mild to moderate Parkinson's disease (PK, safety)
Assay type: in vivo, human
TEST CONDITIONS: human, plasma, oral, 300 mg, PD patients; Regimen B 300 mg single dose on Day 9, fed state; read-out: Tmax (median)

>  <COMPOUND>
Brc1cccc(-c2cc(-c3ccc4c(c3)OCO4)n[nH]2)c1 [anle138b]

>  <Tmax (h)>
3

$$$$

* * *

ASSAY: phase 1 first-in-human trial, single ascending dose (SAD) PK
Type: in vivo
TEST CONDITIONS: human, plasma, po, 300 mg, healthy volunteers, fasted; single oral 300 mg; plasma; read-out: AUC(0-24) (geometric mean)
MEASUREMENT KIND: AUC(0-t)

>  <COMPOUND>
Brc1cccc(-c2cc(-c3ccc4c(c3)OCO4)n[nH]2)c1 [anle138b]

>  <MEASURED VALUE>
~1650 ng·h/mL

$$$$

* * *

ASSAY: phase 1 first-in-human trial, multiple ascending dose (MAD) PK
Type: in vivo
TEST CONDITIONS: human, plasma, oral, 200 mg, healthy volunteers, fasted; 200 mg QD (Cohort BM); Day 7; read-out: Tmax (median)

>  <COMPOUND>
Brc1cccc(-c2cc(-c3ccc4c(c3)OCO4)n[nH]2)c1 [anle138b]

>  <Tmax>
1 h

$$$$

* * *

ASSAY: phase 1 study in patients with mild to moderate Parkinson's disease (PK, safety)
Type: in vivo, human
TEST CONDITIONS: human, plasma, oral, 150 mg, PD patients; Regimen C 150 mg BID, fast; Day 7; read-out: Cmax (geometric mean)

>  <COMPOUND>
Brc1cccc(-c2cc(-c3ccc4c(c3)OCO4)n[nH]2)c1 [anle138b]

>  <Cmax>
~182 ng/mL

$$$$

* * *

ASSAY: phase 1 study in patients with mild to moderate Parkinson's disease (PK, safety)
Assay type: in vivo, human
TEST CONDITIONS: human, plasma, oral, 150 mg, PD patients; Regimen A 150 mg single dose on Day 9, fed state; read-out: Cmax (geometric mean)

>  <MOLECULE>
Brc1cccc(-c2cc(-c3ccc4c(c3)OCO4)n[nH]2)c1 [anle138b]

>  <Cmax>
167 ng/mL

$$$$

* * *

ASSAY: phase 1 study in patients with mild to moderate Parkinson's disease (PK, safety)
Type: in vivo, human
TEST CONDITIONS: human, plasma, oral, 150 mg, PD patients; Regimen A 150 mg QD (row prints fed, title fasted state); Day 7; read-out: Tmax (median)

>  <MOLECULE>
Brc1cccc(-c2cc(-c3ccc4c(c3)OCO4)n[nH]2)c1 [anle138b]

>  <Tmax at 7 days>
1 h

$$$$

* * *

ASSAY: phase 1 study in patients with mild to moderate Parkinson's disease (PK, safety)
Assay type: in vivo, human
TEST CONDITIONS: human, plasma, oral, 150 mg, PD patients; Regimen A 150 mg QD (row prints fed, title fasted state); Day 7; read-out: Cmax (geometric mean)

>  <MOLECULE>
Brc1cccc(-c2cc(-c3ccc4c(c3)OCO4)n[nH]2)c1 [anle138b]

>  <Cmax>
~160 ng/mL

$$$$

* * *

ASSAY: phase 1 first-in-human trial, single ascending dose (SAD) PK
Type: in vivo
TEST CONDITIONS: human, plasma, po, 200 mg, healthy volunteers, fasted; single oral 200 mg; plasma; read-out: T1/2 (geometric mean) (converted)
MEASUREMENT KIND: half-life (h)

>  <COMPOUND>
Brc1cccc(-c2cc(-c3ccc4c(c3)OCO4)n[nH]2)c1 [anle138b]

>  <MEASUREMENT KIND>
half-life

>  <MEASURED VALUE>
12.8

$$$$

* * *

ASSAY: phase 1 first-in-human trial, single ascending dose (SAD) PK
Assay type: in vivo
TEST CONDITIONS: human, plasma, po, 50 mg, healthy volunteers, fasted; single oral 50 mg; plasma; read-out: AUC(0-last) (geometric mean)
Method: Anle138b was studied in a single-centre, double-blind, randomised, placebo-controlled single ascending dose (SAD) and multiple ascending dose (MAD) study in healthy subjects. […] Data from all randomized individuals were evaluated. […] Study design: A single-centre, double-blind, randomised, placebo-controlled single ascending dose (SAD) and multiple ascending dose (MAD) study of anle138b in doses of up to 300 mg per day in healthy subjects. […] The study data was monitored. […]
MEASUREMENT KIND: AUC(0-t)

>  <COMPOUND>
Brc1cccc(-c2cc(-c3ccc4c(c3)OCO4)n[nH]2)c1 [anle138b]

>  <MEASUREMENT KIND>
AUC(0-t)

>  <MEASURED VALUE>
109 ng·h/mL

$$$$

* * *

ASSAY: phase 1 first-in-human trial, single ascending dose (SAD) PK
Assay type: in vivo
TEST CONDITIONS: human, plasma, po, 300 mg, healthy volunteers, fasted; single oral 300 mg; plasma; read-out: T1/2 (geometric mean) (converted)
MEASUREMENT KIND: half-life (h)

>  <MOLECULE>
Brc1cccc(-c2cc(-c3ccc4c(c3)OCO4)n[nH]2)c1 [anle138b]

>  <MEASUREMENT KIND>
half-life

>  <MEASURED VALUE>
16.2

$$$$

* * *

ASSAY: phase 1 first-in-human trial, multiple ascending dose (MAD) PK
Format: in vivo
TEST CONDITIONS: human, plasma, oral, 200 mg, healthy volunteers, fasted; 200 mg QD; Day 1; read-out: AUC(0-tau) (geometric mean)
MEASUREMENT KIND: AUC

>  <MOLECULE>
Brc1cccc(-c2cc(-c3ccc4c(c3)OCO4)n[nH]2)c1 [anle138b]

>  <MEASUREMENT KIND>
AUC

>  <MEASURED VALUE>
~905 ng·h/mL

$$$$

* * *

ASSAY: phase 1 first-in-human trial, food effect study (FES) PK
Assay type: in vivo
TEST CONDITIONS: human, plasma, oral, 150 mg, 150 mg single dose; fasted; read-out: AUC0-24 range
MEASUREMENT KIND: AUC(0-t)

>  <MOLECULE>
Brc1cccc(-c2cc(-c3ccc4c(c3)OCO4)n[nH]2)c1 [anle138b]

>  <MEASUREMENT KIND>
AUC(0-t)

>  <MEASURED VALUE>
433 to 2720 ng·h/mL

$$$$

* * *

ASSAY: phase 1 study in patients with mild to moderate Parkinson's disease (PK, safety)
Format: in vivo, human
TEST CONDITIONS: human, plasma, oral, 300 mg, PD patients; Regimen B 300 mg QD; Day 7; read-out: T1/2 (geometric mean) (converted)
MEASUREMENT KIND: half-life at 7 days (h)

>  <MOLECULE>
Brc1cccc(-c2cc(-c3ccc4c(c3)OCO4)n[nH]2)c1 [anle138b]

>  <MEASURED VALUE>
11.8

$$$$

* * *

ASSAY: phase 1 study in patients with mild to moderate Parkinson's disease (PK, safety)
Format: in vivo, human
TEST CONDITIONS: human, plasma, oral, 300 mg, PD patients; Regimen B 300 mg QD (row prints fed, title fasted state); Day 1; tau 24 h; read-out: Ctau (geometric mean)

>  <MOLECULE>
Brc1cccc(-c2cc(-c3ccc4c(c3)OCO4)n[nH]2)c1 [anle138b]

>  <concentration at 24 h (ng/mL)>
6.81

$$$$

* * *

ASSAY: phase 1 first-in-human trial, food effect study (FES) PK
Format: in vivo
TEST CONDITIONS: human, plasma, po, 150 mg, healthy volunteers; single oral 150 mg; fasted; read-out: Cmax (geometric mean)

>  <COMPOUND>
Brc1cccc(-c2cc(-c3ccc4c(c3)OCO4)n[nH]2)c1 [anle138b]

>  <Cmax>
~442 ng/mL

$$$$
